Where do these numbers come from? They come from ChEMBL document CHEMBL3044671.

- Test system: Bacillus subtilis
- measurement_protocol: Antimicrobial activity against Bacillus subtilis MTCC 430 assessed as growth inhibition by agar streak dilution method
- Format: functional
Parameter: MIC. Scope: all listed entries.
parameter: MIC (µg/mL)

> print(dat)
                                   molecule          tested.on  parameter  measured.result
1  O=C1C(Cl)C(c2cc3ccccc3nc2S)N1c1ccccc1[N+](=O)[O-] (centres undefined)  Bacillus subtilis        MIC             62.5
2  Cc1ccccc1N1C(=O)CSC1c1cc2ccccc2nc1S (centres undefined)  Bacillus subtilis        MIC              100
3  Cc1ccc(N2C(=O)C(Cl)C2c2cc3ccccc3nc2S)cc1 (centres undefined)  Bacillus subtilis        MIC              100
4  Cc1ccccc1N1C(=O)C(Cl)C1c1cc2ccccc2nc1S (centres undefined)  Bacillus subtilis        MIC              100
5  Cc1cccc(N2C(=O)C(Cl)C2c2cc3ccccc3nc2S)c1 (centres undefined)  Bacillus subtilis        MIC              100
6  O=C1CSC(c2cc3ccccc3nc2S)N1c1cccc(Cl)c1 (centres undefined)  Bacillus subtilis        MIC             3.12
7  O=C1C(Cl)C(c2cc3ccccc3nc2S)N1c1ccc(Cl)cc1 (centres undefined)  Bacillus subtilis        MIC             6.25
8  O=C1CSC(c2cc3ccccc3nc2S)N1c1cccc([N+](=O)[O-])c1 (centres undefined)  Bacillus subtilis        MIC               50
9  Cc1cnc(N2C(=O)C(Cl)C2c2cc3ccccc3nc2S)s1 (centres undefined)  Bacillus subtilis        MIC             6.25
